Task for the reader: assign each of the following molecules its reported IC50.
Molecular target: CVF-Bb complex (Homo sapiens (Human), UniProt P00751)
Assay: biochemical
Assay type: biochemical
Method: CVF-Bb complex, prepared from purified cobra venom factor, (3 nM) is incubated with a compound of the disclosure at various concentrations for 10 minutes at room temperature in PBS (pH 7.4) containing 10 mM MgCl2 and 0.05% (w/v) CHAPS. Human Complement C3 substrate is added to a final concentration of 1 μM. […] The product of the reaction, C3a, is quantified by means of an enzyme-linked-immunosorbent assay and/or denaturing gel electrophoresis (SDS-PAGE). […]

Q. Which IC50 value belongs to COc1cc(C)c2[nH]ccc2c1CN1CC[C@H]2C[C@H]1c1ccc(C(=O)NS(=O)(=O)C3(C)CC3)cc1OCCCCCCO2 [Ex. 46] ?
A. 311 nM

Q. I have this molecule here, CCO[C@H]1CCN2Cc3c(cc(C)c4[nH]ccc34)OCCCCCCCCCOc3cc(C(=O)O)ccc3[C@@H]2C1 [Ex. 31] , and I need its recorded IC50.
A. 2870 nM

Q. Quick one: IC50 for CCO[C@H]1CCN(Cc2c(OC)cc(C)c3[nH]ccc23)[C@H](c2ccc(C(=O)O)cc2OC)C1 [Ex. 3] ?
A. 263 nM

Q. Look up IC50: COc1cc(C)c2[nH]ccc2c1CN1CC[C@H]2C[C@H]1c1ccc(C(=O)O)cc1/C=C/CCCCCO2 [Ex. 36]
A. 241 nM

Q. May I ask what IC50 has been recorded for CCO[C@H]1CCN2Cc3c(cc(C)c4[nH]ccc34)OCCCCCCCCCCOc3cc(C(=O)O)ccc3[C@@H]2C1 [Ex. 32] ?
A. > 10000 nM

Q. Find the recorded IC50 belonging to COc1cc(C)c2[nH]ccc2c1CN1CC[C@@H]2C[C@@H]1c1ccc(C(=O)O)cc1OCC/C=C\CO2 [Ex. 42] and report it.
A. 1060 nM

Q. Suppose we examine the molecule COc1cc(C)c2[nH]ccc2c1CN1CC[C@H]2C[C@H]1c1ccc(C(=O)O)cc1/C=C\CCCCCO2 [Ex. 37] ; what IC50 value has been reported?
A. 263 nM

Q. Entry under review: COc1cc(C)c2[nH]ccc2c1CN1CC[C@H]2C[C@H]1c1ccc(C(=O)O)cc1CCCCCCCCO2 [Ex. 41] . Reported IC50?
A. 129 nM

Each recorded value in this set is attributed to patent US20240182503A1.
